Consider the following binders; for each one, report its Binding Inhibition (%).
- test-system: T1, gH/gL/UL128/UL130/UL131A pentamer complex expressed from MVA-PC in BHK-21 cells (human cytomegalovirus, UniProt P12824 24-743; P16832 31-278; P16837 28-171; P16772 1-214; F5HET4 19-129)
- T1 construct: whole, on cells
- test: FC competition, MVA-PC BHK-21; unlabelled row Ab; competitor: biotinylated 13B5
Numbers only, in %.

Observe how each entry below is paired with its result.
binder	result-unit	Binding Inhibition (%)
21F6 (antibody, V domains shown, also called NAb 21F6) VH: QIQLVQSGPELKKPGETVKISCKASGYTFTSYGMNWVKQAPGKGLKWMGWINTYTGEPTYADDFKGRFAFSLETSASTAYLQINNLKNEDTATYFCAREHYYGINPLLGCWGQGTTLTVSS VL: DIQMTQTTSSLSASLGDRVTISCSASQGISNYLNWYQQKPDGTVKLLIYDTSSLHSGVPSRFSGSGSGTDYSLTISNLEPEDIATYYCQQYSKLPYTFGGGTKLEIK	%	0
54E11 (antibody, V domains shown, also called NAb 54E11) VH: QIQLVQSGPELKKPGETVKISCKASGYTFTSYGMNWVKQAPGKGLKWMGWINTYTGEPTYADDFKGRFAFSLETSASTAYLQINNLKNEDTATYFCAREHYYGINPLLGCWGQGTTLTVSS VL: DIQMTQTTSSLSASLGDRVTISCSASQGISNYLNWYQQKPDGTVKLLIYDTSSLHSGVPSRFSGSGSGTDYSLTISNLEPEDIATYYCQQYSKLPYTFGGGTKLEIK	%	0

Now look at this one.
Measured Binding Inhibition (%), 13B5 (antibody, V domains shown, also called NAb 13B5; 1365) VH: QVTLKESGPGILKPSQTLSLTCSFSGFSLTTSGLGVGWIRQPSGKGLEWLAHIWWDDDKYFNPSLRNQLTISKDTSRNQVFLEITSVTTADTATYYCVRSLYDYDEGYYFDSWGQGTTLTVSS VL: EIVMIQSPATLSVNPGDRVSLSCRASQSISDYLHWYQQKSHESPRLLIKYASQSISGIPSRFSGSGSGSDFTLSINSVEPEDVGVYYCQNGHTFPPTFGGGTKLEIK : 100
